Reference source: patent EP2527332A1

Tested on: HeLa/MaTu/ADR cell
Assay: Proliferation assay (crystal violet), HeLa/MaTu/ADR
Assay type: cell-based, human
Conditions: Homo sapiens, HeLa, 96 h, HeLa/MaTu/ADR (multidrug-resistant), 4 days incubation; read-out: Inhibition of HeLa/MaTu/ADR cell proliferation IC50
pIC50: −log10 of the molar value.

{"columns": ["Compound", "Tested system", "pIC50"],
 "data": [
  ["COc1cc(F)ccc1-c1ncnc(Nc2cccc(CS(C)(=N)=O)c2)n1 (single isomer, unassigned; (-))", "HeLa/MaTu/ADR cell", 6.40]
]}

###

Tested on: HeLa cell
Test: Proliferation assay (crystal violet), HeLa
Type: cell-based, human
Details: Homo sapiens, 96 h, 4 days incubation, read-out: Inhibition of HeLa cell proliferation IC50
pIC50: −log10 of the molar value.
Entries annotated with measured pIC50

{"columns": ["Compound", "Qualifying sign", "pIC50"],
 "data": [
  ["CCOC(=O)N=S(C)(=O)Cc1cccc(Nc2ncnc(-c3ccc(F)cc3OC)n2)c1 (racemic)", "=", 6.00],
  ["CS(=N)(=O)Cc1cccc(Nc2ncnc(-c3ccc(F)cc3OCc3ccccc3)n2)c1 (racemic)", ">", 7.00],
  ["CCOC(=O)N=S(C)(=O)Cc1cccc(Nc2ncnc(-c3cc(F)c(F)cc3OC)n2)c1 (racemic)", "=", 6.40],
  ["COc1cc(F)ccc1-c1ncnc(Nc2cccc(CS(C)(=N)=O)c2)n1 (single isomer, unassigned; (-)) [Compound 3]", "=", 5.96],
  ["COc1cc(F)ccc1-c1ncnc(Nc2cccc(CS(C)(=N)=O)c2)n1 (racemic) [Compound 2]", "=", 5.96]
]}
